system: HBV viral load, AD38 cells; test: Activity of test compounds on viral production from AD38 cells (viral load by quantitative PCR of the core sequence in supernatant); format: cell-based, Hepatitis B virus; conditions: Hepatitis B virus, 144 h, 10 μM compound, 6 days at 37° C., vs DMSO control wells; Table 6; read-out: AD38 Viral Load (CpAM/DMSO %) at 10 μM
observedProperty: activity at 10 µM
Kindly write the number and append the unit.

Known activity at 10 µM results, listed for orientation:
lineNotation | measuredValue
Cc1ccc(S(=O)(=O)N2CCN(c3nc(Oc4ccc(F)cc4)cc(C(C)C)n3)CC2)cc1 | 102%
Cc1ccc(Nc2cc(C)nc(N3CCN(S(=O)(=O)c4ccc5[nH]c(=O)[nH]c5c4)CC3)n2)cc1 | 36%
Cc1ccc(S(=O)(=O)N2CCN(c3nc(Nc4ccc(F)cc4)cc(N(C)C)n3)CC2)cc1 | 22%
COc1ccc(S(=O)(=O)N2CCN(c3cc(C)cc(Nc4ccc(C)cc4)n3)CC2)cc1 | 21%
Cc1ccc(Nc2cc(C)nc(N3CCN(S(=O)(=O)c4c[nH]cn4)CC3)n2)cc1 | 32%
O=S(=O)(c1ccccc1)N1CCN(c2nc(Nc3ccc(F)cc3)cc(-n3cnnc3)n2)CC1 | 36%

Next molecule, please.
Task item: Give the measured activity at 10 µM for `COc1ccc(S(=O)(=O)N2CCN(c3nc(Nc4ccc(C)cc4)cc(-n4ccnc4)n3)CC2)cc1`
Reply: 13%
